# System: P-gp
# experiment.notes: Bidirectional transport across Caco-2 cell monolayer
# Assay type: in vitro ADME, human
# run.conditions: human, pH 7.4, with verapamil 50 µM; Caco-2, 25 µM RA, 10 min, + 50 µM verapamil; read-out: RE (efflux ratio)
# Procedure: The qualified monolayers were used for transport studies. […] Each experiment was carried out in triplicate.
reported.metric: efflux ratio at 10 min, 25 µM
Numbers only.

// query Form field: reported efflux ratio at 10 min, 25 µM of "C[C@@H]1CC[C@]2(C(=O)O)CC[C@]3(C)C(=CC[C@@H]4[C@@]5(C)CC[C@H](O)[C@@](C)(CO)[C@@H]5CC[C@]43C)[C@@H]2[C@]1(C)O"
// result 2.55

---

# experiment.notes: In vivo pharmacokinetic study of oral rotundic acid with or without verapamil pre-treatment
# Parameters: species or system Sprague–Dawley rats
# run.conditions: male, Sprague-Dawley, rat, plasma, po, 10 mg/kg, rats, RA 10 mg/kg oral, pre-treatment of verapamil 25 mg/kg
reported.metric: half-life
In your response, put the unit directly after the numeric value.

// query Form field: reported half-life of "C[C@@H]1CC[C@]2(C(=O)O)CC[C@]3(C)C(=CC[C@@H]4[C@@]5(C)CC[C@H](O)[C@@](C)(CO)[C@@H]5CC[C@]43C)[C@@H]2[C@]1(C)O"
// result 2.44 h

---

# experiment.notes: In vivo pharmacokinetic study of oral rotundic acid with or without verapamil pre-treatment
# Parameters: species or system Sprague–Dawley rats
# run.conditions: male, Sprague-Dawley, rat, plasma, po, 10 mg/kg, rats, RA 10 mg/kg oral, control (vehicle)
reported.metric: Vd/F (L/kg)
Numbers only, in L/kg.

// query Form field: reported Vd/F of "C[C@@H]1CC[C@]2(C(=O)O)CC[C@]3(C)C(=CC[C@@H]4[C@@]5(C)CC[C@H](O)[C@@](C)(CO)[C@@H]5CC[C@]43C)[C@@H]2[C@]1(C)O"
// result 64.6

---

# experiment.notes: In vivo pharmacokinetic study of oral rotundic acid with or without verapamil pre-treatment
# Design: species or system Sprague–Dawley rats
# run.conditions: male, Sprague-Dawley, rat, plasma, po, 10 mg/kg, rats, RA 10 mg/kg oral, pre-treatment of verapamil 25 mg/kg; read-out: Tmax
reported.metric: Tmax

// query Form field: reported Tmax of "C[C@@H]1CC[C@]2(C(=O)O)CC[C@]3(C)C(=CC[C@@H]4[C@@]5(C)CC[C@H](O)[C@@](C)(CO)[C@@H]5CC[C@]43C)[C@@H]2[C@]1(C)O"
// result 37.5 min

---

# experiment.notes: In vivo pharmacokinetic study of oral rotundic acid with or without verapamil pre-treatment
# Parameters: species or system Sprague–Dawley rats
# run.conditions: male, Sprague-Dawley, rat, plasma, po, 10 mg/kg, rats, RA 10 mg/kg oral, pre-treatment of verapamil 25 mg/kg; read-out: AUC0–24
reported.metric: AUC(0-t)
In your response, put the unit directly after the numeric value.

// query Form field: reported AUC(0-t) of "C[C@@H]1CC[C@]2(C(=O)O)CC[C@]3(C)C(=CC[C@@H]4[C@@]5(C)CC[C@H](O)[C@@](C)(CO)[C@@H]5CC[C@]43C)[C@@H]2[C@]1(C)O"
// result 496 ng·h/mL

---

# experiment.notes: In vivo pharmacokinetic study of oral rotundic acid with or without verapamil pre-treatment
# Set-up: species or system Sprague–Dawley rats
# run.conditions: male, Sprague-Dawley, rat, plasma, po, 10 mg/kg, rats, RA 10 mg/kg oral, pre-treatment of verapamil 50 mg/kg; read-out: Tmax
reported.metric: Tmax
In your response, put the unit directly after the numeric value.

// query Form field: reported Tmax of "C[C@@H]1CC[C@]2(C(=O)O)CC[C@]3(C)C(=CC[C@@H]4[C@@]5(C)CC[C@H](O)[C@@](C)(CO)[C@@H]5CC[C@]43C)[C@@H]2[C@]1(C)O"
// result 1.17 h

---

# experiment.notes: In vivo pharmacokinetic study of oral rotundic acid with or without verapamil pre-treatment
# Parameters: species or system Sprague–Dawley rats
# run.conditions: male, Sprague-Dawley, rat, plasma, po, 10 mg/kg, rats, RA 10 mg/kg oral, pre-treatment of verapamil 25 mg/kg
reported.metric: CL/F (mL/min/kg)
Numbers only, in mL/min/kg.

// query Form field: reported CL/F of "C[C@@H]1CC[C@]2(C(=O)O)CC[C@]3(C)C(=CC[C@@H]4[C@@]5(C)CC[C@H](O)[C@@](C)(CO)[C@@H]5CC[C@]43C)[C@@H]2[C@]1(C)O"
// result 312

---

# experimental.system: P-gp (Homo sapiens, UniProt P08183)
# Sequence (P08183 whole entry): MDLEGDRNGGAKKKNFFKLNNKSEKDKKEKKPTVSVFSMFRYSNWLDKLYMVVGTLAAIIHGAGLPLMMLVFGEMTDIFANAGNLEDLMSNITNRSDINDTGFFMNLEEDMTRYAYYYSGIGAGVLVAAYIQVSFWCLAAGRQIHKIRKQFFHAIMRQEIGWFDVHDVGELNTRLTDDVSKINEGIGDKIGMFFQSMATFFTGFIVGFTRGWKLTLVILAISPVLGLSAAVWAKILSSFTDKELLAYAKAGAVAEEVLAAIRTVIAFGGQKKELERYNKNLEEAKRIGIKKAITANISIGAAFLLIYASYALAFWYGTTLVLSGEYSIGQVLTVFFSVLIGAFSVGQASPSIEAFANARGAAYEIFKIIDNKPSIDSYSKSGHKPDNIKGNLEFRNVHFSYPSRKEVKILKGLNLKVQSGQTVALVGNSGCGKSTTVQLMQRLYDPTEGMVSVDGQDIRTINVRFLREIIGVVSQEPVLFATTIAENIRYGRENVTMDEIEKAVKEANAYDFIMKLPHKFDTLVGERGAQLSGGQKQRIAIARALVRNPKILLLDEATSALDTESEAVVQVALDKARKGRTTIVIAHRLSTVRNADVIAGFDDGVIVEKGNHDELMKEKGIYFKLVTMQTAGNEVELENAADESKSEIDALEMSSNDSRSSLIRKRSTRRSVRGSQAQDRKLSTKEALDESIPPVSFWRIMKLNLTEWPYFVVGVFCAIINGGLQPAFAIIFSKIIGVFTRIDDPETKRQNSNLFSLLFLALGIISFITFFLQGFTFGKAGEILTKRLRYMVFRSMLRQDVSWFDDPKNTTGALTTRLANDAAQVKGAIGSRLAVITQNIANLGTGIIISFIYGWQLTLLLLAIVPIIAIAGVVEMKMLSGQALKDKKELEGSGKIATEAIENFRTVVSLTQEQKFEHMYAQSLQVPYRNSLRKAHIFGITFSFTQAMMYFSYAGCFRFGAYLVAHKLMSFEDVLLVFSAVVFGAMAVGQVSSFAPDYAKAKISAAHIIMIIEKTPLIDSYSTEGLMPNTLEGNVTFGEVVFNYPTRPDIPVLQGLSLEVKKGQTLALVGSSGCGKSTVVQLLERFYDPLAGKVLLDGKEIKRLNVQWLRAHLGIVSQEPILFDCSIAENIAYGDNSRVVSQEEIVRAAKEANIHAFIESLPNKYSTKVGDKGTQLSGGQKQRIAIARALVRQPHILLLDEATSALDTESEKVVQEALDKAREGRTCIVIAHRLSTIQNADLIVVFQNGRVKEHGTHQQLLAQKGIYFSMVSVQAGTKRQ
# experiment.notes: Bidirectional transport across MDCKII-MDR1 cell monolayers (P-gp substrate assessment)
# run.conditions: dog, MDCK-MDR1, pH 7.4
reported.metric: Papp B→A at 20 min (nm/s)
Give bare numbers, in nm/s.

// query Form field: reported Papp B→A at 20 min of "C[C@@H]1CC[C@]2(C(=O)O)CC[C@]3(C)C(=CC[C@@H]4[C@@]5(C)CC[C@H](O)[C@@](C)(CO)[C@@H]5CC[C@]43C)[C@@H]2[C@]1(C)O"
// result 121

Next:
// query Form field: reported Papp B→A at 20 min of "COC(=O)c1ccccc1-c1c2ccc(=N)cc-2oc2cc(N)ccc12"
// result 17.8

---

# experiment.notes: Bidirectional transport across Caco-2 cell monolayer
# Assay type: in vitro ADME, human
# run.conditions: human, pH 7.4; Caco-2, 25 µM RA, 60 min, without verapamil; read-out: RE (efflux ratio)
reported.metric: efflux ratio at 60 min, 25 µM
Numbers only.

// query Form field: reported efflux ratio at 60 min, 25 µM of C[C@@H]1CC[C@]2(C(=O)O)CC[C@]3(C)C(=CC[C@@H]4[C@@]5(C)CC[C@H](O)[C@@](C)(CO)[C@@H]5CC[C@]43C)[C@@H]2[C@]1(C)O [RA, Rotundic acid]
// result 2.31

---

# experiment.notes: Bidirectional transport across Caco-2 cell monolayer
# Assay type: in vitro ADME, human
# run.conditions: human, pH 7.4; Caco-2, 25 µM RA, 20 min, without verapamil
reported.metric: Papp A→B at 20 min, 25 µM
In your response, put the unit directly after the numeric value.

// query Form field: reported Papp A→B at 20 min, 25 µM of "C[C@@H]1CC[C@]2(C(=O)O)CC[C@]3(C)C(=CC[C@@H]4[C@@]5(C)CC[C@H](O)[C@@](C)(CO)[C@@H]5CC[C@]43C)[C@@H]2[C@]1(C)O"
// result 0.776 ×10⁻⁶ cm/s

---

# experiment.notes: In vivo pharmacokinetic study of oral rotundic acid with or without verapamil pre-treatment
# Parameters: species or system Sprague–Dawley rats
# run.conditions: male, Sprague-Dawley, rat, plasma, po, 10 mg/kg, rats, RA 10 mg/kg oral, pre-treatment of verapamil 25 mg/kg
# Method: Male Sprague–Dawley rats (180–220 g) were purchased from SiPeiFu (Beijing) Biotechnology Co., Ltd. (Beijing, China). Rats were housed in a breeding room at stable temperature (22 ± 3 °C), humidity (55 ± 10%), and under non-pathogenic conditions. All animals were placed under the above conditions and acclimatized to the facilities for one week, then fasted for 12 h with water ad libitum before the experiments. […]
reported.metric: Vd/F

// query Form field: reported Vd/F of "C[C@@H]1CC[C@]2(C(=O)O)CC[C@]3(C)C(=CC[C@@H]4[C@@]5(C)CC[C@H](O)[C@@](C)(CO)[C@@H]5CC[C@]43C)[C@@H]2[C@]1(C)O"
// result 66.7 L/kg

---

# System: P-gp
# experiment.notes: Bidirectional transport across Caco-2 cell monolayer
# Assay type: in vitro ADME, human
# run.conditions: human, pH 7.4, with verapamil 50 µM; Caco-2, 25 µM RA, 20 min, + 50 µM verapamil; read-out: RE (efflux ratio)
reported.metric: efflux ratio at 20 min, 25 µM
Answers are plain numbers.

// query Form field: reported efflux ratio at 20 min, 25 µM of "C[C@@H]1CC[C@]2(C(=O)O)CC[C@]3(C)C(=CC[C@@H]4[C@@]5(C)CC[C@H](O)[C@@](C)(CO)[C@@H]5CC[C@]43C)[C@@H]2[C@]1(C)O"
// result 2.17

---

# System: P-gp
# experiment.notes: Bidirectional transport across Caco-2 cell monolayer
# Type: in vitro ADME, human
# run.conditions: human, pH 7.4, with verapamil 50 µM; Caco-2, 25 µM RA, 10 min, + 50 µM verapamil
reported.metric: Papp B→A at 10 min, 25 µM (×10⁻⁶ cm/s)
Numbers only, in ×10⁻⁶ cm/s.

// query Form field: reported Papp B→A at 10 min, 25 µM of "C[C@@H]1CC[C@]2(C(=O)O)CC[C@]3(C)C(=CC[C@@H]4[C@@]5(C)CC[C@H](O)[C@@](C)(CO)[C@@H]5CC[C@]43C)[C@@H]2[C@]1(C)O"
// result 2.73
